tested on: Liver microsome; assay: Drug metabolism in human liver metabolism assessed as omeprazole sulfone depletion measured as intrinsic clearance per mg of microsomal protein; assay type: ADME; conditions: microsomes
measure.name: CLint

Value lookup for CLint; key = COc1ccc2[nH]c([S+]([O-])Cc3ncc(C)c(OC)c3C)nc2c1 (stereo unspecified) [OMEPRAZOLE]
32 µL/min/mg

----------
test system: Liver microsome; assay: Drug metabolism in human liver metabolism assessed as 5OH-omeprazole formation measured as intrinsic clearance per mg of microsomal protein; type: ADME; settings: microsomes
measure.name: CLint

Need CLint, item COc1ccc2[nH]c([S+]([O-])Cc3ncc(C)c(OC)c3C)nc2c1 (stereo unspecified) [OMEPRAZOLE]
7.1 µL/min/mg

----------
test system: Liver microsome; test: Drug metabolism in human liver metabolism assessed as 5OH-omeprazole formation; format: ADME, tissue-based
measure.name: Km (µM)
Just the number in µM, nothing appended.

Sample COc1ccc2[nH]c([S+]([O-])Cc3ncc(C)c(OC)c3C)nc2c1 (stereo unspecified) — what was its Km?
16

----------
tested on: Liver microsome; test: Drug metabolism in human liver microsomes assessed as dextrorphan formation; format: ADME
measure.name: Km (µM)
Dear colleague, please return just the value in µM, with no unit written.

Value wanted: Km (Liver microsome) of entry "COc1ccc2c(c1)[C@]13CCCC[C@@H]1[C@H](C2)N(C)CC3"
5

----------
system: Liver microsome; test: Drug metabolism in human liver metabolism assessed as omeprazole sulfone formation measured as intrinsic unbound clearance per mg of microsomal protein; format: ADME; details: microsomes
measure.name: CL free (µL/min/mg)
Your answer is read as µL/min/mg, so omit the unit and give the number.

Return reported CL free; argument: COc1ccc2[nH]c([S+]([O-])Cc3ncc(C)c(OC)c3C)nc2c1 (stereo unspecified)
7.7
